# subject of test: MMP-2 (Homo sapiens, UniProt P08253)
# Construct: the cDNA encoding the catalytic domain of MMP-2 was generated by PCR; made in house; host or cells: HEK 293 cells
# Sequence (P08253 110-465 limits assumed): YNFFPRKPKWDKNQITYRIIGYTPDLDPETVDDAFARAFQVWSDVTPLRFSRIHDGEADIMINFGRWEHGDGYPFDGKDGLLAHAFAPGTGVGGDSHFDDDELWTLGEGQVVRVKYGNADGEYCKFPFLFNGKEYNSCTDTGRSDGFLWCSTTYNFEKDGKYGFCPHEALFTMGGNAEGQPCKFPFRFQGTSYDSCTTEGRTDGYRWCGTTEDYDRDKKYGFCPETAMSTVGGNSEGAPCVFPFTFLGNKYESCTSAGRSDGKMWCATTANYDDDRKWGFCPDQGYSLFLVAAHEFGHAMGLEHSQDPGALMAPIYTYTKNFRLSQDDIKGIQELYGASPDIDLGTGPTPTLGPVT
# protocol notes: Peptide substrate hydrolysis kinetics, fluorescamine incorporation assay (kcat/Km, selectivity ratio)
# Format: biochemical
# assay conditions: MMP-2 substrates; MMP-1
measured parameter: selectivity ratio: kcat/Km for MMP-2 divided by kcat/Km for MMP-1

Previously resolved entries follow.
>  <substance>
A34: MMP-2 selective substrate peptide from phage clone A34, sequence N-R-Y-S-S-L-T-A (NRYSSLTA)

>  <measured value>
24

$$$$
>  <substance>
B74: MMP-2 selective substrate peptide from phage clone B74, sequence E-S-L-A-Y-Y-T-A (ESLAYYTA)

>  <measured value>
140

$$$$
>  <substance>
C9: MMP-2 selective substrate peptide from phage clone C9, sequence R-S-L-S-R-L-T-A (RSLSRLTA)

>  <measured value>
52

$$$$

Which selectivity ratio: kcat/Km for MMP-2 divided by kcat/Km for MMP-1 is reported for this substance? A13: MMP-2 selective substrate peptide from phage clone A13, sequence G-A-V-S-W-L-L-T (GAVSWLLT)
28

Hey, just so you know, these numbers are from patent US7935785B2.
